Molecular target: T1, PD-1 (UniProt Q15116 25-170, limits assumed)
T1 construct: also called PD-1 protein
T1 sequence (Q15116 25-170 limits assumed): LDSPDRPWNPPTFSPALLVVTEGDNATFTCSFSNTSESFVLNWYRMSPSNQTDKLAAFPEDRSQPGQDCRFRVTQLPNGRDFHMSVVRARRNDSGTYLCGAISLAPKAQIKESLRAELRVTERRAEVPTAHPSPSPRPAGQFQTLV
Assay: SPR; set-up and antigen form not restated
Experimental endpoint: koff (s⁻¹)
Give a bare numeral; the unit s⁻¹ is implied.

// worked examples, koff included
{"Binder": "NB194-P29-z3 (Fc fusion, not shown: IgG4 constant region of vector pCDNA3.4-IgG4) heavy: QVQLVESGGGLVQPGGSLTLSCSASGHSFSIYDMGWFRQAADKERESVAVINFGRGTTYYAESVKGRFTISRDNAKNTVYLQMNSLRAEDTAVYSCGIDRRQYGLGIPPLADHWGQGSQVTVSS", "koff (s⁻¹)": "3.75e-05"}
{"Binder": "NB194-P29-z5 (Fc fusion, not shown: IgG4 constant region of vector pCDNA3.4-IgG4) heavy: QVQLVESGGGLVQPGGSLRLSCSASGHSFSIYDMGWFRQAPDKERESVAVINFGRGTTYYAESVKGRFTISRDNAKNTVYLQMNSLRAEDTAVYSCGIDRRQYGLGIPPLADHWGQGSQVTVSS", "koff (s⁻¹)": "2.43e-05"}

Input line: Look up and state reported koff for NB194-P29 (Fc fusion, not shown: IgG4 constant region of vector pCDNA3.4-IgG4) heavy: QLQLVESGGGSAQAGGSLTLSCTASGHSFSIYDMGWFRQAADKERESVAVINFGRGTTYYAESVKGRFTISLDSAKNTVYLQMNTLKPEDTAVYSCGIDRRQYGLGIPPLADHWGQGSQVTVSS
Output line: 4.37e-05

Input line: Tell us which koff value is on record for NB194-P29-z8 (Fc fusion, not shown: IgG4 constant region of vector pCDNA3.4-IgG4) heavy: QVQLVESGGGLVQPGGSLRLSCSASGHSFSIYDMGWFRQAPGKERESVAVINFGRGTTYYAESVKGRFTISRDNAKNTVYLQMNSLRAEDTAVYSCGIDRRQYGLGIPPLADHWGQGSQVTVSS
Output line: 2.54e-05
